- Test system: Cricetinae gen. sp.
- METHOD_SUMMARY: Compound was evaluated for inhibition of Elastase-induced Pulmonary hemorrhage (EPH) in hamsters at the dose of 20 micro/mL)
- Assay type: functional
- Design: unit not given here
ASSAY_METRIC: Max hemorrhage

Can you share its Max hemorrhage? I mean this compound: CC(C)C(NC(=O)C1Cc2ccccc2CN1C(=O)[C@@H](NC(=O)c1ccc(C(=O)NS(=O)(=O)c2ccc(Cl)cc2)cc1)C(C)C)C(=O)C(F)(F)F (stereo partly drawn)
88.4

Item: CCOC(=O)N1CCC(N(CC(=O)NC(C(=O)C(F)(F)F)C(C)C)C(=O)[C@@H](NC(=O)c2ccc(C(=O)NS(=O)(=O)c3ccc(Cl)cc3)cc2)C(C)C)CC1 (stereo partly drawn)
98.4

Same question, CC(C)C(NC(=O)CN(C(=O)[C@@H](NC(=O)OCc1ccccc1)C(C)C)C1Cc2ccccc2C1)C(=O)C(F)(F)F (stereo partly drawn) this time
24.2

Now consider CC(C)C(NC(=O)CN(C(=O)[C@@H](NC(=O)c1ccc(C(=O)NS(=O)(=O)c2ccc(Cl)cc2)cc1)C(C)C)C1CCCCCC1)C(=O)C(F)(F)F (stereo partly drawn) and answer again.
84.3

Same again, this time with CC(C)C(NC(=O)CN(C(=O)[C@@H](NC(=O)c1ccc(C(=O)NS(=O)(=O)c2ccc(Cl)cc2)cc1)C(C)C)C1CCCC1)C(=O)C(F)(F)F (stereo partly drawn)
99.2

// query: CC(C)[C@H](NC(=O)c1ccc(C(=O)NS(=O)(=O)c2ccc(Cl)cc2)cc1)C(=O)N(CC(=O)NC(Cc1ccccc1)C(=O)C(F)(F)F)C1Cc2ccccc2C1 (stereo partly drawn)
43.8

Request: CC(C)C(NC(=O)CNC(=O)[C@@H](NC(=O)c1ccc(C(=O)NS(=O)(=O)c2ccc(Cl)cc2)cc1)C(C)C)C(=O)C(F)(F)F (stereo partly drawn)
85.1

Do the same for CC(C)C(NC(=O)CN(C(=O)[C@@H](NC(=O)c1ccc(C(=O)NS(=O)(=O)c2ccc(Cl)cc2)cc1)C(C)C)C1CC2CCC1C2)C(=O)C(F)(F)F (stereo partly drawn) please
93.8

# credit: ChEMBL document CHEMBL1125371
